- Protocol: Stat Signaling Pathway (AID 446);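 further: ME-180 cervical cancer cells given 40 pM IL-6 alongside compound; SIE-controlled beta-lactamase reporter measured as 460/530 nm FRET emission ratio; on the % scale 0 is the no-effect control and ±100 the full control effect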
- Condition Notes: ME-180 SIE beta-lactamase reporter, IL-6 stimulated, 5 h; at 7.69 µM (top of the series) unless noted
Results filed as inconclusive are left out. Active and inactive are the calls of the source. The call rests on the fitted dose curve; in most records, active means well fitted curve in either direction with a large enough effect (not every such curve was filed as active); inconclusive means small, poorly fitted or top-dose-only effect, or another doubt; inactive means flat fitted curve, though single readings scatter.
Measured activity, negative = inhibition accompanies every entry in the list below.

Known results for compounds:
c1cc2c(cc1C(N1CCNCC1)N1CCNCC1)OCO2 : -2.48% (inactive)
O=C(O)CCC/C=C\C[C@H]1[C@@H](/C=C\[C@@H](O)C2Cc3ccccc3C2)[C@H](F)C[C@H]1O : 9.41% [at 38 µM] (inactive)
CN(C)Cc1ccccc1-c1ccc2ncnc(NC3CCNCC3)c2c1 : -2.13% (inactive)
CCc1c(O)c2c(c(O)c1C(C)=O)C(=O)c1c(cc(O)c(C(=O)O)c1C(=O)O)C2=O : 5.45% (inactive)
Cc1ccc(NC(=O)c2ccccc2C(=O)O)cc1C : -5.42% (inactive)

input: Give the reported activity, negative = inhibition for this compound. "N[C@@H](CSC(=O)c1ccccc1)C(=O)O"
output: 4.69% (inactive)

input: Give the reported value of activity, negative = inhibition for this record: "Oc1ccc(Cc2nccc3cc(O)c(O)cc23)cc1O"
output: -2.43% (inactive)

====

- Protocol: NFAT Signaling Pathway (AID 444);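 further: carbachol stimulus at about its EC50 of 1 µM final; on the % scale 0 is the no-effect control and ±100 the full control effect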
- Condition Notes: Jurkat NFAT-bla M1, carbachol, beta-lactamase ratio, 5 h; at 7.69 µM (top of the series) unless noted
- Method: NCGC Assay Overview: The nuclear factor of activated T cells (NFAT) family of transcription factors has been found primarily in most immune system cells and some other non-immune cells. NFAT plays the immunomodulatory role, primarily in T-cell activation and differentiation. […] NCGC Assay Protocol Summary: The cells were prepared in RPMI 1640 medium containing 0.1% dialyzed FBS and 25 mM HEPES at 1.6 x 10^6cell/ml. […] The %Activity was determined from the ratio of 460nm/530nm. […]
Records with an inconclusive call do not appear. Active and inactive are the calls of the source. Calls follow the shape of the dose curve; as a rule, active = well fitted curve in either direction with a large enough effect (not every such curve was filed as active); inconclusive = small, poorly fitted or top-dose-only effect, or another doubt; inactive = flat fitted curve, though single readings scatter.
Experimental Endpoint: activity change, negative = inhibition

Below are worked cases with known answers.
COC(=O)c1cc(=O)[nH]c(=O)[nH]1 : 1.11% (inactive)
Cc1cc([N+](=O)[O-])c(C)c(Br)c1C : -7.3% (inactive)
CC(C)/C(=N/[N+](C)(C)C)c1ccccc1 : -1.16% (inactive)
CC1(C)S[C@@H]2[C@H](C(=O)O)N=C(Cc3ccccc3)N2[C@H]1C(=O)O : 8.91% (inactive)
CN1C[C@H](c2ccccc2)C(O)([C@]2(c3ccccc3)CN(C)C[C@@H](c3ccccc3)C2=O)[C@H](c2ccccc2)C1 (some centres undefined) : -6.86% (inactive)

input: Identify measured activity change, negative = inhibition associated with "O=C(O)c1cccc(C[C@H](Br)C(=O)O)c1"
output: 14.3% (inactive)

input: Report measured activity change, negative = inhibition; entry is "CC(C)c1ccc2c(c1)CC[C@H]1[C@@](C)(CN)CCC[C@@]21C"
output: 30% (inactive)

====

- Protocol: Stat Signaling Pathway (AID 446);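 further: ME-180 cervical cancer cells given 40 pM IL-6 alongside compound; SIE-controlled beta-lactamase reporter measured as 460/530 nm FRET emission ratio; on the % scale 0 is the no-effect control and ±100 the full control effect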
- Condition Notes: ME-180 (cervical carcinoma) SIE beta-lactamase reporter, IL-6 stimulated, 5 h; at 7.69 µM (top of the series) unless noted
Results filed as inconclusive are left out. The source made the active and inactive calls. Calls come from the whole dose curve; as a rule, active = well fitted curve in either direction with a large enough effect (not every such curve was filed as active); inconclusive = small, poorly fitted or top-dose-only effect, or another doubt; inactive = flat fitted curve, though single readings scatter.
Experimental Endpoint: activity, negative = inhibition

C[n+]1cccc(/C=C\c2ccc3cccc(O)c3n2)c1 : 3.53% (inactive)
CC[C@@H](CS(=O)(=O)O)[N+](=O)[O-] : 10.6% (inactive)
O=C1C=CC(=Nc2cccc3c(N=C4C=CC(=O)O4)cccc23)O1 : -22.4% (inactive)

input: Identify measured activity, negative = inhibition associated with "COc1ccc(CCN(C)CCC[C@@](C#N)(c2cc(OC)c(OC)c(OC)c2)C(C)C)cc1OC"
output: -12.4% [at 38 µM] (inactive)

input: Give activity, negative = inhibition for "Cc1ccc(S(=O)(=O)N[C@H](C(=O)O)C(C)C)cc1"
output: -0.976% (inactive)

The reported measurements were obtained from PubChem BioAssay (NCATS).
